Where these numbers come from: ChEMBL document CHEMBL1139192

Target: Protein kinase C epsilon type (Homo sapiens)
Assay: Residual activity of human PKCepsilon at 1 uM relative to control
Kindly state residual activity for each of the entries shown.
Numbers only, in %.

Some compounds with known residual activity results, for comparison:
Which measured residual activity value corresponds to CN(C)c1cc2cc(n1)CCCn1cc(c3ccccc31)C1=C(C(=O)NC1=O)c1cn(c3ccccc13)CCC2 ?
83

Which measured residual activity value corresponds to O=C1NC(=O)C2=C1c1cn(c3ccccc13)CCCc1ccc(c(N3CCCC3)n1)CCCn1cc2c2ccccc21 ?
97

State the recorded residual activity for every item in the following list.
1. CN(C)c1nc2ccc1CCCn1cc(c3ccccc31)C1=C(C(=O)NC1=O)c1cn(c3ccccc13)CC2
2. O=C1NC(=O)C2=C1c1cn(c3ccccc13)CCCc1cc(nc(N3CCCC3)c1)CCCn1cc2c2ccccc21

1: 72; 2: 93
